target: T1, recombinant human NRP-1 (human, UniProt O14786 22-856, limits assumed); assay: blocking ELISA: SEMA3A coated, biotinylated human NRP-1 preincubated with IgG1 antibody; competitor SEMA3A
T1 construct: also called biotinylated human NRP-1
T1 sequence (O14786 22-856 V179A limits assumed): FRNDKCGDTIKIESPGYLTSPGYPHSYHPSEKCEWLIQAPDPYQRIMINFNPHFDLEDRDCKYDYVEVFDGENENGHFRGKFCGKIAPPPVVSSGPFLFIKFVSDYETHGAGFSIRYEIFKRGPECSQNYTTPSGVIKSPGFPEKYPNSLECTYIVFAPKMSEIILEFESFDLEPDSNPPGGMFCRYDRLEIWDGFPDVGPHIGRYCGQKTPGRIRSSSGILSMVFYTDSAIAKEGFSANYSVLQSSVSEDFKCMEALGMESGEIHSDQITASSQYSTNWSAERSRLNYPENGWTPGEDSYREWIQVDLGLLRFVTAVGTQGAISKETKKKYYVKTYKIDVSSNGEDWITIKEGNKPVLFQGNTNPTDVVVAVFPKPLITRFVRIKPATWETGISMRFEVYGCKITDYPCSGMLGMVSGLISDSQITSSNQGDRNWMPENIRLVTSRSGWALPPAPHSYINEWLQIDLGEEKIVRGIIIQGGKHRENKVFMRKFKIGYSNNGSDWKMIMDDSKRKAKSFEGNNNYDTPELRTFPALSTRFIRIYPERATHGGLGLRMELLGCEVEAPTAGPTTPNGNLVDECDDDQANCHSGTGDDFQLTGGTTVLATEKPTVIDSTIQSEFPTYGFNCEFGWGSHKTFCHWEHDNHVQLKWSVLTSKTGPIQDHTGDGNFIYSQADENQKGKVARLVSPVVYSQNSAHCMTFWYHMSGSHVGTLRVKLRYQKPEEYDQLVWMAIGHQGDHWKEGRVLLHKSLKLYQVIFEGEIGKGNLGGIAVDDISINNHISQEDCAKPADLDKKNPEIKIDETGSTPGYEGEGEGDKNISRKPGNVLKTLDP
ENDPOINT: pIC50
Scale explanation: pIC50 corresponds to minus log10 of a concentration expressed in moles per litre.

Take a look at these entries with their results.
MAB6 (antibody, V domains shown) VH: QVQLVQSGAKVKKPGASVKVSCKASGYTFTSYYMHWVRQVPGQGLEWMGIINPQGGDTSYAQKFQGRVTMTRDTSTSTVYMELSSLRSEDTAVYYCARDRGMYYASGFNPWGQGTLVTVSS VL: EIVMTQSPGTLSLSPGERATLSCRASQSVSSSYLAWYQQKPGQAPRLLIYGASNRATGIPDRFSGSGSGTDFTLTISRLEPEDFAVYYCQQLSSFPITFGGGTKVEIK | 8.74
MAB2 (antibody, V domains shown) VH: QVQLVQSGAEVKKPGASVKVSCKASGYTFRSYYMLWVRQAPGQGLEWMGIIDPSDGSTSYAQKFQGRVTMTRDASTSTVYMELSSLRSEDTAVYYCARGARRITGYGMDVWGQGTTVIVSS VL: DIQMTQSPSSVSASVGDRVTITCRASQGISSWLAWYQQKPGKAPKLLIYAASNLQSGVPSRFSGSGSGTDFTLTISSLQPEDFATYYCQQASVFPFTFGGGTKVEIK | 8.51

Note: attention shifts to another entry.
Lookup: What value of pIC50 has been recorded for this entry: MAB9 (antibody, V domains shown) VH: EVQLLESGGGLVQPGGSLRLSCAASGFTFKSYAMVWVRQAPGKGLEWVSIISGSGGATYYADSVKGRFTISRDNSKNTLYLQMNSLRAEDTAVYYCAKDPGYDSSRYYYSNYGMDVWGQGTTVTVSS VL: DIQMTQSPSSLSASVGDRVTITCRASQSISSYLNWYQQKPGKAPKLLIYGASSLQSGVPSRFSGSGSGTDFTLTISSLQPEDFATYYCQQTYSLYTFGGGTKVEIK
Found: 8.74
